Cited source: patent US20210130452A1

Target: T1, rat IL-17A (rat, UniProt Q61453 18-150, limits assumed)
T1 sequence (looked up): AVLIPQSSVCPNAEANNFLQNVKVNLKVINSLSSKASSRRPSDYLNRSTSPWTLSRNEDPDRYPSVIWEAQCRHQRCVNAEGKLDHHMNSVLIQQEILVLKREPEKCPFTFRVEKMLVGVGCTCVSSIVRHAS
Test: ELISA, coated IL-17A
The label is T for OD below 0.004 OD and F for OD equal to or exceeding 0.004 OD.

binder	category
13E05 (VHH, Class 4) VHH: EVQLVESGGGKVQAGDSLTLSCVASGGTFSNYAAWFRQAPGKDRRELVVSIFRTGSITYTADSVKGRFTASRVNTKNTVYLQMNSLKPEDTAVYYCASAYNPGVGYDYWGQGTQVTVSS	T
17C01 (VHH, Class 4) VHH: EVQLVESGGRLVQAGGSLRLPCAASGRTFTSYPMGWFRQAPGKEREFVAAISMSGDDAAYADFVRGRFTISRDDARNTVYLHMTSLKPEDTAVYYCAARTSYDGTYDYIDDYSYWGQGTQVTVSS	T
13B05 (VHH, Class 4) VHH: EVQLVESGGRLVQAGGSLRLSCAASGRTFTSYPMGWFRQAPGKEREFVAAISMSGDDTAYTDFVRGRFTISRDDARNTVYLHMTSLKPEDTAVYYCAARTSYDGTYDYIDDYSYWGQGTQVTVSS	T
04B09 (VHH, Class 2) VHH: EVQLVESGGGLVQPGGSLRLSCAASGFTLGYYAIGWFRQAPGKEREGVSCDSSSDGDTYYANSVKGRFTISTDNGKNTVYLQMNSLKPEDTAVYYCATCTDWNYDYWGQGTQVTVSS	T
02A08 (VHH, Class 2) VHH: EVQLVESGGGVVQPGGSLRLSCADSERSFSFNAMGWFRQAPGKEREFVAAISATGDDTYYADSVKGRFAISRDTARNTVYLQMNSLKPEDTAVYYCGARVNFDGTVSYTNDYAYWGQGTQVTVSS	T
11A06 (VHH, Class 2) VHH: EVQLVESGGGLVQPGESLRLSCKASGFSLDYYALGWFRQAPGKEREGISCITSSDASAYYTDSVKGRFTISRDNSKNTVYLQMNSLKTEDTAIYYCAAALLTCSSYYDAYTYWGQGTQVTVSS	F
